Each recorded value in this set is attributed to ChEMBL document CHEMBL1255399.

system: Haemophilus influenzae; assay: Antimicrobial activity against Haemophilus influenzae Rd KW20 by broth microdilution method; format: functional

| molecule | reading-qualifier | MIC / µg/mL |
| --- | --- | --- |
| C=CC1=C(C(=O)O)N2C(=O)[C@@H](NC(=O)/C(=N\OCC(=O)O)c3csc(N)n3)[C@H]2SC1 | ≤ | 0.03 |
| CO/N=C(\C(=O)N[C@@H]1C(=O)N2C(C(=O)O)=C(COC(C)=O)CS[C@H]12)c1csc(N)n1 | ≤ | 0.03 |
| CO/N=C(\C(=O)N[C@@H]1C(=O)N2C(C(=O)O)=C(COC(N)=O)CS[C@H]12)c1ccco1 | = | 0.5 |
| C[C@H]1[C@H](NC(=O)/C(=N\OC(C)(C)C(=O)O)c2csc(N)n2)C(=O)N1S(=O)(=O)O | ≤ | 0.12 |
| CC1(C)S[C@@H]2[C@H](NC(=O)[C@H](N)c3ccc(O)cc3)C(=O)N2[C@H]1C(=O)O | ≤ | 0.5 |
| CC1(C)S[C@@H]2[C@H](NC(=O)Cc3ccccc3)C(=O)N2[C@H]1C(=O)O | = | 0.5 |
| C[C@@H](O)[C@H]1C(=O)N2C(C(=O)O)=C(SCCNC=N)C[C@H]12 [IMIPENEM ANHYDROUS] | = | 0.5 |
| CC1(C)S[C@@H]2[C@H](NC(=O)[C@H](N)c3ccccc3)C(=O)N2[C@H]1C(=O)O | ≤ | 0.25 |
| N[C@@H](C(=O)N[C@@H]1C(=O)N2C(C(=O)O)=C(Cl)CS[C@H]12)c1ccccc1 [CEFACLOR ANHYDROUS] | = | 1 |

---

tested on: Haemophilus influenzae; assay: Antimicrobial activity against Haemophilus influenzae Rd KW20 harboring with plasmid pB1000 bearing beta-lactamase ROB-1 by broth microdilution method; format: functional
Overview of recorded MIC for various compounds

| compound | MIC |
| --- | --- |
| CC1(C)S[C@@H]2[C@H](NC(=O)Cc3ccccc3)C(=O)N2[C@H]1C(=O)O [PENICILLIN G] | > 256 µg/mL |
| C[C@H]1[C@H](NC(=O)/C(=N\OC(C)(C)C(=O)O)c2csc(N)n2)C(=O)N1S(=O)(=O)O [AZTREONAM] | ≤ 0.12 µg/mL |
| CC1(C)S[C@@H]2[C@H](NC(=O)[C@H](N)c3ccccc3)C(=O)N2[C@H]1C(=O)O [AMPICILLIN] | > 128 µg/mL |
| CC1(C)S[C@@H]2[C@H](NC(=O)[C@H](N)c3ccc(O)cc3)C(=O)N2[C@H]1C(=O)O [AMOXICILLIN] | > 64 µg/mL |
